Reference source for all entries: patent US6136558A

molecular target: ErbB-3 receptor-Ig fusion (human) (UniProt P21860); assay: phage ELISA, ratio to wild-type HRG8 phage
measured parameter: EC50(wt)/EC50(mut)

[[record]]
binder = "D1 (phage) (ligand) SHLVKCAEKEKTFCVNGGECYKVRILSNPSRYLCKCPNEFTGDRCQNYVIAS"
measured_parameter = "EC50(wt)/EC50(mut)"
relational_operator = "="
recorded_value = 11

[[record]]
binder = "HRG56 (phage) (ligand) SHLVKCGEEREGFCVNGGECFMVKDLSNPSRYLCKCPNEFTGDRCQNYVIAS"
measured_parameter = "EC50(wt)/EC50(mut)"
relational_operator = "="
recorded_value = 31

[[record]]
binder = "SHLVKCAEKEKTFCVNGGECYRVKTYGYLMCKCPNEFTGDRCQNYVMAS (ligand) [HRG57 (phage)]"
measured_parameter = "EC50(wt)/EC50(mut)"
relational_operator = "="
recorded_value = 24

[[record]]
binder = "HRG53 (phage) (ligand) SHLVKCGEEREGFCVNGGECYRVKTLSNPSRYLCKCPNEFTGDRCQNYVMAS"
measured_parameter = "EC50(wt)/EC50(mut)"
relational_operator = "="
recorded_value = 26

[[record]]
binder = "H5 (phage) (ligand) SHLVKCAEKEKTFCVNGGECFMVKDLSNPSRYLCKCPNEFTGERCQNYVMAS"
measured_parameter = "EC50(wt)/EC50(mut)"
relational_operator = "="
recorded_value = 1.5

[[record]]
binder = "SHLVKCGEEREGFCVNGGECFMVKDYGYLMCKCPNEFTGDRCQNYVIAS (ligand) [HRG61 (phage)]"
measured_parameter = "EC50(wt)/EC50(mut)"
relational_operator = "="
recorded_value = 29

[[record]]
binder = "SHLVKCAEKEKTFCVNGGECYRVKTYGYLMCKCPNEFTGDRCQHYVIAS (ligand) [HRG71 (phage)]"
measured_parameter = "EC50(wt)/EC50(mut)"
relational_operator = "="
recorded_value = 79

[[record]]
binder = "HRG37 (phage) (ligand) WELVPCGWDREGFCVNGGECFMVKDLSNPSRYLCKCPNEFTGDRCQNYVIAS"
measured_parameter = "EC50(wt)/EC50(mut)"
relational_operator = "="
recorded_value = 13

[[record]]
binder = "I1 (phage) (ligand) SHLVKCAEKEKTFCVNGGECFMVKDLSNPSRYLCKCPNEFTGDRCQWYVIAS"
measured_parameter = "EC50(wt)/EC50(mut)"
relational_operator = "="
recorded_value = 13

[[record]]
binder = "A4 (phage) (ligand) WSLVKCAEKEKTFCVNGGECFMVKDLSNPSRYLCKCPNEFTGDRCQNYVMAS"
measured_parameter = "EC50(wt)/EC50(mut)"
relational_operator = "<"
recorded_value = 0.3

[[record]]
binder = "SHLVKCAEKEKTFCVNGGECFMVKDYRYRMCKCPNEFTGDRCQNYVIAS (ligand) [E3 (phage)]"
measured_parameter = "EC50(wt)/EC50(mut)"
relational_operator = "="
recorded_value = 16

[[record]]
binder = "I2 (phage) (ligand) SHLVKCAEKEKTFCVNGGECFMVKDLSNPSRYLCKCPNEFTGDRCQHYVIAS"
measured_parameter = "EC50(wt)/EC50(mut)"
relational_operator = "="
recorded_value = 20

